System tested: hIP (Homo sapiens)
Construct: expressed in transfected cells
Sequence (P43119 whole entry): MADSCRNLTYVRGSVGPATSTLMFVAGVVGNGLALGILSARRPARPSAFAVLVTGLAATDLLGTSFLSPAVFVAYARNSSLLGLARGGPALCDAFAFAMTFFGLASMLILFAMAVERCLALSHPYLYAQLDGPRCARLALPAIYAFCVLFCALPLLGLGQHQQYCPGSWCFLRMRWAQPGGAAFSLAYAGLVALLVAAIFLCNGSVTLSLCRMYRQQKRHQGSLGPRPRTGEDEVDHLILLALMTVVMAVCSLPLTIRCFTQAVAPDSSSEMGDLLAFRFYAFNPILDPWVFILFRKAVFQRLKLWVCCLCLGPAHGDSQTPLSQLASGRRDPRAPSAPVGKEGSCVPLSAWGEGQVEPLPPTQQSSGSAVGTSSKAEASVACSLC
Experiment description: FLIPR calcium signal, IP
Type: cell-based
Condition description: HEK-293(EBNA)

Compound: CCCCCC(O)c1ccc([C@@H]2[C@@H](C/C=C\CCCC(=O)O)[C@H](Cl)C[C@H]2O)cc1 (mixture of isomers) [Entry 11]
Ca2+ Signal-EC50 (nM) IP: not active
//
Compound: O=C(O)CCC/C=C\C[C@@H]1[C@@H](c2ccc(C(O)CC3CCCCC3)cc2)[C@H](O)C[C@H]1Cl (mixture of isomers)
Ca2+ Signal-EC50 (nM) IP: not active
//
Compound: CCCCCC(O)c1ccc([C@@H]2[C@@H](C/C=C\CCCC(=O)OC)[C@H](Cl)C[C@H]2O)cc1 (mixture of isomers)
Ca2+ Signal-EC50 (nM) IP: not active
